Hi there, I'd appreciate the recorded shrunken log2 fold change for every entry that follows.
Tested on: Escherichia coli TOP10;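 note: peptides expressed intracellularly from a pBAD plasmid library in pooled LB shake-flask culture, induced with 0.3% L-arabinose, DNA abundance read by NGS, three biological replicates, DESeq2 with apeglm shrinkage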
Method Summary: shrunken log2 fold change of peptide-encoding DNA abundance (4.5 h post-induction vs induction); higher = less antimicrobial activity (less host growth inhibition)
Condition Info: time post-induction: 4.5 h; library: site-saturation at positions 5, 18, 19, 20
Respond with the number and no other words.

Query: Provide shrunken log2 fold change value for the following sequence: `RRIRIRPPRLPRPRPRPCHVPRP`
Result: -0.401

Query: Annotate the sequence `RRIRTRPPRLPRPRPRPRLKPRP` with its measured shrunken log2 fold change.
Result: 0.0991

Query: Return shrunken log2 fold change for the following sequence: `RRIRKRPPRLPRPRPRPFAKPRP`
Result: 0.0238

Query: Indicate the recorded shrunken log2 fold change value for this sequence: `RRIRMRPPRLPRPRPRPGALPRP`
Result: 0.954

Query: Quickly give me recorded shrunken log2 fold change for `RRIRRRPPRLPRPRPRPIHWPRP`
Result: -0.0227

Query: Kindly indicate its recorded shrunken log2 fold change. Item: `RRIRTRPPRLPRPRPRPAGFPRP`
Result: -0.0588

Query: For the sequence `RRIRERPPRLPRPRPRPQAKPRP` , give its measured shrunken log2 fold change value.
Result: 0.162

Query: Report shrunken log2 fold change for `RRIRCRPPRLPRPRPRPEGMPRP`
Result: 0.422

Query: Provide shrunken log2 fold change value for the following sequence: `RRIRQRPPRLPRPRPRPMENPRP`
Result: -0.0199

Query: Return reported shrunken log2 fold change. Input sequence: `RRIRPRPPRLPRPRPRPAMMPRP`
Result: -0.214

Query: Kindly indicate its recorded shrunken log2 fold change. Item: `RRIRLRPPRLPRPRPRPLEPPRP`
Result: 0.0493

Query: # return recorded shrunken log2 fold change for entry `RRIRTRPPRLPRPRPRPMVHPRP`
Result: -0.00211

Query: Quote shrunken log2 fold change reported for `RRIRHRPPRLPRPRPRPVCGPRP` please.
Result: 0.137

Query: // fetch shrunken log2 fold change given entry `RRIRHRPPRLPRPRPRPINMPRP`
Result: -0.244

Query: Give the measured shrunken log2 fold change for `RRIRIRPPRLPRPRPRPWVHPRP`
Result: -0.0605

Query: Tell me measured shrunken log2 fold change for `RRIRTRPPRLPRPRPRPNRFPRP` please.
Result: -0.00879

Query: Input `RRIRHRPPRLPRPRPRPILLPRP` , output reported shrunken log2 fold change.
Result: -0.211

Query: Supply measured shrunken log2 fold change of `RRIRCRPPRLPRPRPRPWEAPRP` in your reply.
Result: 0.0139

Query: Determine its reported shrunken log2 fold change: `RRIRNRPPRLPRPRPRPFKIPRP`
Result: -0.0688

Query: State its shrunken log2 fold change for this sequence: `RRIRTRPPRLPRPRPRPYPWPRP`
Result: -0.178

Query: Answer with the recorded shrunken log2 fold change of `RRIRARPPRLPRPRPRPVTPPRP` only.
Result: 0.479

Query: Provide only the value of recorded shrunken log2 fold change for `RRIRCRPPRLPRPRPRPVPKPRP`
Result: 0.339

Query: Input `RRIRERPPRLPRPRPRPDFGPRP` , output reported shrunken log2 fold change.
Result: -0.0271

Query: For `RRIRRRPPRLPRPRPRPPIKPRP` , write its shrunken log2 fold change.
Result: 0.14

Query: Report measured shrunken log2 fold change; entry is `RRIRPRPPRLPRPRPRPCHVPRP`
Result: -0.0695

Query: Fill in shrunken log2 fold change for record `RRIRQRPPRLPRPRPRPPDTPRP`
Result: 0.103

Query: Please give measured shrunken log2 fold change of the following entry: `RRIRGRPPRLPRPRPRPKIVPRP`
Result: 0.278

Query: Read off the recorded shrunken log2 fold change for `RRIRDRPPRLPRPRPRPMHKPRP`
Result: 0.0101

Query: Give shrunken log2 fold change for the following sequence: `RRIRKRPPRLPRPRPRPWEEPRP`
Result: -0.000921

Query: Assign shrunken log2 fold change to the following record: `RRIRERPPRLPRPRPRPIQVPRP`
Result: -0.0549

Query: Tell me shrunken log2 fold change reported for `RRIRSRPPRLPRPRPRPNMQPRP`
Result: -0.0719

Query: Quick one: give measured shrunken log2 fold change for `RRIRTRPPRLPRPRPRPRIGPRP`
Result: 0.116

Query: Give a short answer stating reported shrunken log2 fold change for `RRIRRRPPRLPRPRPRPCEHPRP` .
Result: -0.212

Query: State its shrunken log2 fold change for this sequence: `RRIRTRPPRLPRPRPRPLLPPRP`
Result: 0.112
